Hello, the source for this data is PubChem BioAssay (NCI), in case you need it.

- Test system: LOX IMVI melanoma
- METHOD SUMMARY: NCI tumour cell line growth inhibition, 48 h
ENDPOINT: GI50

[
  {
    "COMPOUND": "CCN(CC)CCNc1ccc([N+](=O)[O-])c2sc3cc(Cl)ccc3c(=O)c12",
    "GI50": "2.8 µM"
  },
  {
    "COMPOUND": "Fc1ccc(-c2nn3c(COc4ccc(Cl)cc4)nnc3s2)cc1Oc1ccccc1",
    "GI50": "> 42.2 µM"
  },
  {
    "COMPOUND": "C#Cc1cccc(NC(=O)C2CCCN(C(=O)CCl)C2)c1 (stereo not given)",
    "GI50": "14.4 µM"
  }
]

The following compounds each have a reported value; give each one's GI50.
1. NC(N)=N/N=C(/c1ccccc1)c1ccccc1F
2. COc1cc(OC)cc(-c2ccc(-c3ccc(C(=N)N)cn3)s2)c1
3. COc1ccc(Cc2nc3cc(OC)c(OC)cc3c(=O)[nH]2)cc1
4. COc1cc2c(cc1OCCCOc1ccc(-c3cc4ccccc4c4ccccc34)cc1)N=C[C@@H]1CCCN1C2=O

Result ::
1: 4.69 µM; 2: 1.7 µM; 3: 10.9 µM; 4: 1.02 µM

The following compounds each have a reported value; give each one's GI50.
1. O=C(c1ccccc1)C(Br)C(Br)c1ccccc1 (stereo not given)
2. C=C(Cn1c2ccccc2c(=O)c2ccccc21)c1ccc(C(=O)Nc2ccccc2N)cc1
3. CC(=O)[O-].[Mn+3].[O-]c1ccc(Cl)cc1C=NCCN=Cc1cc(Cl)ccc1[O-]

Result ::
1.82 µM
50.4 µM
38.6 µM
